test: Effect of different intervals between administration and a meal on pharmacokinetic parameters (three-period crossover, single oral dose); format: in vivo, human; settings: male, human, plasma, po, 7.5 mg, single oral 7.5 mg; Group B, high-fat meal 1 h after administration; N = 14; read-out: AUC0-ē Mean SD
Measured endpoint: AUC

Give the reported AUC for this compound. `CC1=NN(c2ccc3c(c2)CCCC3)C(=O)/C1=N\Nc1cccc(-c2ccc(C(=O)O)o2)c1O`
347 ng·h/mL

* * *

test: Effect of different intervals between administration and a meal on pharmacokinetic parameters (three-period crossover, single oral dose); type: in vivo, human; conditions: male, human, plasma, po, 7.5 mg, single oral 7.5 mg; Group C, meal 2 h after administration; n 14; mixed-effects ANOVA; read-out: Cmax GeoLSM (geometric least squares mean)
Measured endpoint: Cmax (ng/mL)
Just the number please, in ng/mL, no unit attached.

Give the reported Cmax for this compound. `CC1=NN(c2ccc3c(c2)CCCC3)C(=O)/C1=N\Nc1cccc(-c2ccc(C(=O)O)o2)c1O`
19.8
